- System: MCF7 complex spheroid growth, % test/control
- Assay name: Anticancer human tumor MCF7 cell line growth inhibition [Asc];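 note: spheroids exposed to compounds for 7 days; 100% = DMSO vehicle control wells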
- Experimental conditions: second compound 1 µM; first compound 1 µM; stronger effect = lower value
- Description: Multicellular complex tumor spheroid response to apoptosis pathway targeting inhibitors Alrizomadlin, Pelcitoclax, and Dasminapant in combination with a variety of drugs and investigational agents in selected tumor cell lines […] Compounds. […] If the clinical Cmax for an agent had not been determined, the highest concentration tested was 10 microM. […]
Attribute measured: viability, T/C (%)
All answers are understood in %, so give the number only.

Form: compound = O=C(c1ccc(F)c(F)c1Nc1ccc(I)cc1F)N1CC(O)([C@@H]2CCCCN2)C1 + CNC(C)C(=O)NC1CN(S(=O)(=O)c2cccc(S(=O)(=O)N3CCC4CCC(C(=O)NC(c5ccccc5)c5ccccc5)N4C(=O)C(NC(=O)C(C)NC)C3)c2)CCC2CCC(C(=O)NC(c3ccccc3)c3ccccc3)N2C1=O ; viability, T/C = 13.2

Form: compound = O=C(c1cc(Cc2n[nH]c(=O)c3ccccc23)ccc1F)N1CCN(C(=O)C2CC2)CC1 + Cc1c(S(C)(=O)=O)c(-c2cc(F)cc(N3CCN(c4ccc(NS(=O)(=O)c5ccc(NC(CCN6CCC(C(=O)OCCCP(=O)(O)O)CC6)CSc6ccccc6)c(S(=O)(=O)C(F)(F)F)c5)cc4)CC3)c2)c(-c2ccc(Cl)cc2)n1C(C)C ; viability, T/C = 105

###

viability, T/C values by entry
- Test system: MCF7 complex spheroid growth, % test/control
- Assay name: Anticancer human tumor MCF7 cell line growth inhibition [Asc];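 note: spheroids exposed to compounds for 7 days; 100% = DMSO vehicle control wells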
- Experimental conditions: second compound 0.1 µM; first compound 0.00316 µM; stronger effect = lower value
All answers are understood in %, so give the number only.

COc1c(OCCCN2CCOCC2)ccc2c3n(c(=NC(=O)c4cnc(N)nc4)nc12)CCN3 + CNC(C)C(=O)NC1CN(S(=O)(=O)c2cccc(S(=O)(=O)N3CCC4CCC(C(=O)NC(c5ccccc5)c5ccccc5)N4C(=O)C(NC(=O)C(C)NC)C3)c2)CCC2CCC(C(=O)NC(c3ccccc3)c3ccccc3)N2C1=O: 13.9

Entry Cn1ncnc1[C@H]1c2n[nH]c(=O)c3cc(F)cc(c23)N[C@@H]1c1ccc(F)cc1 + CNC(C)C(=O)NC1CN(S(=O)(=O)c2cccc(S(=O)(=O)N3CCC4CCC(C(=O)NC(c5ccccc5)c5ccccc5)N4C(=O)C(NC(=O)C(C)NC)C3)c2)CCC2CCC(C(=O)NC(c3ccccc3)c3ccccc3)N2C1=O : viability, T/C on MCF7 complex spheroid growth, % test/control = 11.7

Entry NC1CCC(NC2CC2c2ccccc2)CC1 (centres undefined) + Cc1c(S(C)(=O)=O)c(-c2cc(F)cc(N3CCN(c4ccc(NS(=O)(=O)c5ccc(NC(CCN6CCC(C(=O)OCCCP(=O)(O)O)CC6)CSc6ccccc6)c(S(=O)(=O)C(F)(F)F)c5)cc4)CC3)c2)c(-c2ccc(Cl)cc2)n1C(C)C : viability, T/C on MCF7 complex spheroid growth, % test/control = 96.3

Entry NC1CCC(NC2CC2c2ccccc2)CC1 (centres undefined) + CNC(C)C(=O)NC1CN(S(=O)(=O)c2cccc(S(=O)(=O)N3CCC4CCC(C(=O)NC(c5ccccc5)c5ccccc5)N4C(=O)C(NC(=O)C(C)NC)C3)c2)CCC2CCC(C(=O)NC(c3ccccc3)c3ccccc3)N2C1=O : viability, T/C on MCF7 complex spheroid growth, % test/control = 12.5
